Just for reference, paper PMC10914731 is where these values come from.

# study.system: ClpC1 NTD protein (M. tuberculosis) (Mycobacterium tuberculosis)
# Sequence (P9WPC9 1-156, looked up, natural form): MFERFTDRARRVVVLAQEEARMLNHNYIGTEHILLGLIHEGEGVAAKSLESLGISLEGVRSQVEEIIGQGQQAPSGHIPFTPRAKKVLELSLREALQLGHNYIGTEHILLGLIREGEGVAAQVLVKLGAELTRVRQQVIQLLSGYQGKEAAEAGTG
# assay.comment: biochemical
# Assay type: binding

molecule: CO[C@H](c1ccccc1)[C@@H]1NC(=O)[C@H](C)NC(=O)[C@H](C[C@@H](C)CO)N(C)C(=O)[C@H](Cc2cn(CCCCn3cc(C[C@H]4C(=O)N(C)[C@@H](C[C@@H](C)CO)C(=O)N[C@@H](C)C(=O)N[C@@H]([C@H](OC)c5ccccc5)C(=O)N[C@@H](C(C)C)C(=O)N(C)[C@@H](CC(C)C)C(=O)N[C@@H](C(C)C)C(=O)N4C)c4ccccc43)c3ccccc23)N(C)C(=O)[C@H](C(C)C)NC(=O)[C@H](CC(C)C)N(C)C(=O)[C@H](C(C)C)NC1=O [SI-61]
study.system: ClpC1 NTD protein (M. tuberculosis) (Mycobacterium tuberculosis)
koff ClpC1-NTD: 8E-4 5E-4 1/s

====

# Type: in vitro ADME, Rat
# measurement.setup: Rat
*1 amine or outer side, *2 acyl side, *3 side chain or, on linkers, in order; H or OH if unused. Where a SMILES comes first, the peptide text is derived from it. [ ]: non-standard residue; d: D form. NMeTrp(1-Me) = CN[C@@H](Cc1cn(C)c2ccccc12)C(=O)O; X7 = C=CCn1cc(C[C@H](N[*:1])C(=O)[*:2])c2ccccc21; NMeLeu(5-OH,4R) = CN[C@@H](C[C@@H](C)CO)C(=O)O; Phe(βR-OMe) = CO[C@H](c1ccccc1)[C@H](N)C(=O)O; NMeL = CN[C@@H](CC(C)C)C(=O)O; Pra = C#CC[C@H](N)C(=O)O
Let's look at some compounds and their measured Microsomal Stability Rat QH.

compound: C#CC[C@@H]1NC(=O)[C@H](CC(C)C)N(C)C(=O)[C@H](C(C)C)NC(=O)[C@H]([C@H](OC)c2ccccc2)NC(=O)[C@H](C)NC(=O)[C@H](C[C@@H](C)CO)N(C)C(=O)[C@H](Cc2cn(C)c3ccccc23)N(C)C1=O [Compound 20] (cyclo(A[Phe(βR-OMe)]V[NMeL][Pra][NMeTrp(1-Me)][NMeLeu(5-OH,4R)]))
Microsomal Stability Rat QH: >87.900%
--
compound: C=CCn1cc(C[C@@H]2NC(=O)[C@H](C(C)C)NC(=O)[C@H](CC(C)C)N(C)C(=O)[C@H](C(C)C)NC(=O)[C@H]([C@H](OC)c3ccccc3)NC(=O)[C@H](C)NC(=O)[C@H](C[C@@H](C)CO)N(C)C2=O)c2ccccc21 [Compound 13] (cyclo(A[Phe(βR-OMe)]V[NMeL]V[X7][NMeLeu(5-OH,4R)]))
Microsomal Stability Rat QH: >87.900%

====

# Assay type: in vitro ADME, Rat
# measurement.setup: Rat
*1 amine or outer side, *2 acyl side, *3 side chain or, on linkers, in order; H or OH if unused. Where a SMILES comes first, the peptide text is derived from it. [ ]: non-standard residue; d: D form. X3 = C#CCOc1ccc([C@@H](OC)[C@H](N[*:1])C(=O)[*:2])cc1; NMeLeu(5-OH,4R) = CN[C@@H](C[C@@H](C)CO)C(=O)O; Trp(1-Me) = Cn1cc(C[C@H](N)C(=O)O)c2ccccc21; NMeL = CN[C@@H](CC(C)C)C(=O)O

compound: C#CCOc1ccc([C@@H](OC)[C@@H]2NC(=O)[C@H](C)NC(=O)[C@H](C[C@@H](C)CO)N(C)C(=O)[C@H](Cc3cn(C)c4ccccc34)NC(=O)[C@H](C(C)C)NC(=O)[C@H](CC(C)C)N(C)C(=O)[C@H](C(C)C)NC2=O)cc1 [SI-38] (cyclo(A[X3]V[NMeL]V[Trp(1-Me)][NMeLeu(5-OH,4R)]))
reported.relation: =
Microsomal Stability Rat QH, %: 58.700
--
compound: CO[C@H](c1ccccc1)[C@@H]1NC(=O)[C@H](C)NC(=O)[C@H](C[C@@H](C)CO)N(C)C(=O)[C@H](Cc2cn(Cc3cn(CCOCCOCCOCCOCCn4cc(Cn5cc(C[C@H]6C(=O)N(C)[C@@H](C[C@@H](C)CO)C(=O)N[C@@H](C)C(=O)N[C@@H]([C@H](OC)c7ccccc7)C(=O)N[C@@H](C(C)C)C(=O)N(C)[C@@H](CC(C)C)C(=O)N[C@@H](C(C)C)C(=O)N6C)c6ccccc65)nn4)nn3)c3ccccc23)N(C)C(=O)[C@H](C(C)C)NC(=O)[C@H](CC(C)C)N(C)C(=O)[C@H](C(C)C)NC1=O
reported.relation: =
Microsomal Stability Rat QH, %: 41.300
--
compound: CO[C@H](c1ccccc1)[C@@H]1NC(=O)[C@H](C)NC(=O)[C@H](C[C@@H](C)CO)N(C)C(=O)[C@H](Cc2cn(Cc3cn(CCCCCn4cc(Cn5cc(C[C@@H]6NC(=O)[C@H](C(C)C)NC(=O)[C@H](CC(C)C)N(C)C(=O)[C@H](C(C)C)NC(=O)[C@H]([C@H](OC)c7ccccc7)NC(=O)[C@H](C)NC(=O)[C@H](C[C@@H](C)CO)N(C)C6=O)c6ccccc65)nn4)nn3)c3ccccc23)NC(=O)[C@H](C(C)C)NC(=O)[C@H](CC(C)C)N(C)C(=O)[C@H](C(C)C)NC1=O
reported.relation: <
Microsomal Stability Rat QH, %: 23.100
